B1: library; numbered along this chain (parent)
chain: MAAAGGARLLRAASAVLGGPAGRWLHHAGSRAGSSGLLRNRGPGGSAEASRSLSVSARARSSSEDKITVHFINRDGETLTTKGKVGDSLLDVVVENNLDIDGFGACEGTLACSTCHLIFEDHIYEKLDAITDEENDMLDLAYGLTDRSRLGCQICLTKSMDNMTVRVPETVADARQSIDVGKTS

- Variants of: B1
- protocol: scaled log2 fold change in cell abundance, elesclomol vs control (0 = silent mean, 1 = nonsense mean) (scaled log2 ratio); higher = higher viability under elesclomol (loss of FDX1 cuproptosis function);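 further: variant abundance is its share of total variant reads in each endpoint sample, from next-generation sequencing of the integrated ORF PCR-amplified out of genomic DNA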
- cond: with ABC1 FDX1 KO; elesclomol 5 nM; glucose 10 mM; 14 days
value_type: scaled log2 fold change
One number for each entry.

// worked examples, scaled log2 fold change included
>>> observed_value("E169T")
-0.402
>>> observed_value("A15Q")
0.208
>>> observed_value("V94P")
0.617
>>> observed_value("V93E")
0.231
>>> observed_value("G181T")
0.225

Take each entry in turn and give its scaled log2 fold change.
1. S56W
2. S52H
3. E169Q
4. T78Q
5. H27S
6. V93C

[-0.00445, -0.197, -0.166, 0.0403, 0.273, -0.0745]

Hi! Can you tell me scaled log2 fold change for each of these variants?
1. G151V
2. V165D
3. S63E

0.707
1.12
0.199

Please supply scaled log2 fold change for each of the following items, keeping them in order.
1. V171K
2. C152F
3. G151D
4. P20C
5. T109Y
6. L150Y
7. G108K
8. T157V

1: 4.83e-05; 2: 1.1; 3: 1.22; 4: 0.163; 5: -0.087; 6: 0.721; 7: 0.467; 8: -0.108
